- experimental-system: thrombin (alpha-thrombin) (Homo sapiens, UniProt P00734;P00734 P00734:315-363,P00734:364-622)
- assay-notes: filter; 10 nM thrombin
metric: binding signal (% bound)

{"columns": ["binder", "result-number"],
 "data": [
  ["TCCCGCGATCTCTGGGGTAACGTTTTGGTGTGGGTGGCTGAGGATCGATC (ssDNA) [AMX(399)_D3]", 21.7],
  ["TCCCATCGATACGGGGTGGAATCTTGGGGTGGGTGGCTGAGGATCGATC (ssDNA) [AMX(399)_E9]", 14.8],
  ["TCCCATGTGTTAGATCCGTGTGGTTGGACTGGGTGGCTGAGGATCGATC (ssDNA) [AMX(398)_C3]", 10.8],
  ["TCCCATGATTGGCCGGGGTGTCTTTTGGGTCGGGTGGCTGAGGATCGATC (ssDNA) [AMX(398)_C6]", 28],
  ["TCCCGAGAGATTCAAAAGGGACTGGGCGGTTGGGTGGCTGAGGATCGATC (ssDNA) [AMX(399)_H4]", 7.7],
  ["TCCCGTGAGAGCTGGGGTGTTTATATGGGTCGGGTGGCTGAGGATCGATC (ssDNA) [AMX(399)_G9]", 21.3]
]}
